# test.target: ERR1 (also known as ERR-α or ERR-1) (Homo sapiens, UniProt P11474)
# Construct: the ^6His-tagged-ERR1 LBD
# Sequence (P11474 193-421 limits assumed): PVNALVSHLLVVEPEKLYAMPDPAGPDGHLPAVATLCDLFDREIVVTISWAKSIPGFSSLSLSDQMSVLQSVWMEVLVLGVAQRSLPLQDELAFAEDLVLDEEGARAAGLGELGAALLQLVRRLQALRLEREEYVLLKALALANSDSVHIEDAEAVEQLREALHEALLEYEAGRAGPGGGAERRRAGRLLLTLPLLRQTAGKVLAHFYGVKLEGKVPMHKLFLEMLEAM
# method.notes: TR-FRET assay: disruption of co-activator peptide binding to ERR1 LBD
# condition.details: 6His-tagged ERR1 LBD 6 nM, GST-SRC-2 peptide 6 nM, 25° C., 4-18 hours; average of 3 independent experiments
measured.attribute: EC50
Give me the value, and tack the unit on after it.

Prompt line: # returns recorded EC50 (system: ERR1 (also known as ERR-α or ERR-1) (Homo sapiens, UniProt P11474)) for COc1cc(/C=C2\SC(NCc3ccoc3)=NC2=O)ccc1Oc1ccc(C#N)cc1C(F)(F)F [Example 88]
Response line: 15 nM

Prompt line: Now the molecule N#Cc1ccc(Oc2ccc(/C=C3\SC(N(CCO)CCO)=NC3=O)cc2F)c(C(F)(F)F)c1 [Example 41]
Response line: 18 nM

Prompt line: Continue with COc1cc(/C=C2\SC(NCCNC(N)=O)=NC2=O)ccc1Oc1ccc(C#N)cc1C(F)(F)F [Example 74]
Response line: 17 nM

Prompt line: Try this molecule too: COc1cc(/C=C2\SC(NCc3cc(F)cc(F)c3)=NC2=O)ccc1Oc1ccc(C#N)cc1C(F)(F)F [Example 85]
Response line: 57 nM

Prompt line: Now consider COc1cc(/C=C2\SC(NCCOCCO)=NC2=O)ccc1Oc1ccc(C#N)cc1C(F)(F)F [Example 69] and answer again.
Response line: 17 nM

Prompt line: Moving on to the next molecule: COc1cc(/C=C2\SC(N(C)CC(O)CO)=NC2=O)ccc1Oc1ccc(C#N)cc1C(F)(F)F (stereo not shown) [Compound 23]
Response line: 9 nM

Prompt line: Try the molecule COc1cc(/C=C2\SC(NC[C@H](O)CO)=NC2=O)ccc1Oc1ccc(C#N)cc1C(F)(F)F [Example 35]
Response line: 13 nM

Prompt line: Try the molecule N#Cc1ccc(Oc2ccc(/C=C3\SC(NCc4nnn[nH]4)=NC3=O)cc2F)c(C(F)(F)F)c1 [Example 108]
Response line: 10 nM

Prompt line: And the next one, COc1cc(/C=C2\SC(N(C)OC)=NC2=O)ccc1Oc1ccc(C#N)cc1C(F)(F)F [Example 75] ?
Response line: 32 nM

Prompt line: Cool, now COc1cc(/C=C2\SC(NCCn3cccn3)=NC2=O)ccc1Oc1ccc(C#N)cc1C(F)(F)F [Example 30]
Response line: 47 nM

Prompt line: What do we get for CN1CCN(C2=NC(=O)/C(=C/c3ccc(Oc4ccc(C#N)cc4C(F)(F)F)c(F)c3)S2)CC1=O [Example 43] ?
Response line: 22 nM

Prompt line: Then this molecule: COc1cc(/C=C2\SC(NCCNC(C)=O)=NC2=O)ccc1Oc1ccc(C#N)cc1C(F)(F)F [Example 71]
Response line: 13 nM

Prompt line: Also COc1cc(/C=C2\SC(NCCCN3CCNC(=O)C3)=NC2=O)ccc1Oc1ccc(C#N)cc1C(F)(F)F [Example 101] , if possible.
Response line: 11 nM

Prompt line: Proceed to COc1cc(/C=C2\SC(N3CC(C(=O)O)C3)=NC2=O)ccc1Oc1ccccc1C(F)(F)F [Example 119]
Response line: 10 nM

Prompt line: Cool, now COc1cc(/C=C2\SC(N3CC[C@@H](F)C3)=NC2=O)ccc1Oc1ccc(C#N)cc1C(F)(F)F [Example 90]
Response line: 13 nM

Prompt line: Similarly, COC(=O)CCCNC1=NC(=O)/C(=C/c2ccc(Oc3ccc(C#N)cc3C(F)(F)F)c(OC)c2)S1 [Example 82] ?
Response line: 55 nM

Origin of values: patent US8580832B2
